Where do these numbers come from? They come from ChEMBL document CHEMBL5303304.

# System: HEK-293T
# Protocol details: Incucyte cell viability with HEK293T; further: unitless GR value; below 1 slowed growth and below 0 cell loss
# Format: toxicity, cell-based
# Measurement context: human, 24 h, 10 µM, compound concentration 10 uM, replicate number 2
In this section we review reported Growth Rate values for a set of compounds.
Quantity: Growth Rate

[[record]]
compound = "Cc1n[nH]c2ncc(C(=O)N3CCC[C@H]3c3ccc(Cl)cc3)cc12"
val = 0.89

[[record]]
compound = "O=C(Nc1ccccc1C(=O)O)c1cc(S(=O)(=O)c2ccccc2)ccc1Cl"
val = 0.34

[[record]]
compound = "COc1cc(-c2cc(-c3cccc(O)c3)cnc2N)cc(OC)c1OC"
val = 0.42

[[record]]
compound = "Cc1cn(CCN2CCN(c3ccccc3-c3cc(C#N)cc(C(=O)NCCCN4CCCC4)c3)CC2)c2ccccc12"
val = -0.39

[[record]]
compound = "CCc1cnn2c(NCc3ccc[n+]([O-])c3)cc(N3CCCCC3CCO)nc12 (stereo not given)"
val = -0.41


====

# System: Fibroblast
# Protocol details: Incucyte cell viability with human fibroblast; further: unitless GR value; below 1 slowed growth and below 0 cell loss
# Type: toxicity, cell-based
# Measurement context: 18 h, 10 µM, compound concentration 10 uM, replicate number 1
Response key: t means Growth Rate >= 0.09; f means Growth Rate < 0.09.

[[record]]
compound = "Cc1cc(C)cc(C(=O)NOCCCCCC(=O)NO)c1"
group = "f"

[[record]]
compound = "Cn1cc(-c2ccc(-c3cncc(Cl)c3N3CCC4(CCNC4=O)CC3)cc2)cn1"
group = "t"

[[record]]
compound = "O=C1c2c(Br)c(Br)c(Br)c(Br)c2C(=O)N1c1ncc[nH]1"
group = "t"

[[record]]
compound = "COCCN1CCN(CCn2ccc(Nc3ncc4c(n3)-c3c(nn(C)c3-c3ccccc3)C[C@H]4C)n2)CC1"
group = "t"

[[record]]
compound = "CN1CCN(c2ccc(C(=O)Nc3n[nH]c4ccc(Cc5cc(F)cc(F)c5)cc34)c(NC3CCOCC3)c2)CC1 [ENTRECTINIB]"
group = "f"

[[record]]
compound = "N[C@@H](Cn1cc(F)c(=O)[nH]c1=O)C(=O)O"
group = "t"

[[record]]
compound = "CC(C)S(=O)(=O)c1ccccc1Nc1nc(N[C@@H]2CCCN(CCCCCCCNC(=O)COc3cccc4c3C(=O)N(C3CCC(=O)NC3=O)C4=O)C2)ncc1Cl (some centres undefined)"
group = "f"

[[record]]
compound = "Cc1noc(C)c1-c1cnc2c(-c3ccc(C(=O)O)cc3)cn([C@@H](C)c3ccccn3)c2c1 [PLX-51107]"
group = "f"


====

# Test system: HEK-293T
# Protocol details: Incucyte cell viability with HEK293T; further: unitless GR value; below 1 slowed growth and below 0 cell loss
# Assay type: toxicity, cell-based
# Measurement context: human, 6 h, 10 µM, compound concentration 10 uM, replicate number 2
In this section we review reported Growth Rate values for a set of compounds.
Quantity: Growth Rate

[[record]]
compound = "CN(C)C(=O)c1sc2nc(N3CCC(S(C)(=O)=O)CC3)cc(C(F)(F)F)c2c1N [BI-5026]"
val = 0.65

[[record]]
compound = "CC(C=CC1=C(C)CCCC1(C)C)=CC=CC(C)=CC(=O)O"
val = 0.82

[[record]]
compound = "O=C(Nc1ccc(Oc2ccc(Cl)cc2)c(Cl)c1)c1cc(I)cc(I)c1O [RAFOXANIDE]"
val = 0.49

[[record]]
compound = "Cn1c2ccccc2c2c3c(c4c5ccccc5n(CCC#N)c4c21)CNC3=O [GO-6976]"
val = 0.05

[[record]]
compound = "Cl.NC(=O)c1ccccc1Nc1nc(-c2ccc(N3CCOCC3)cc2)cc2ncccc12"
val = -0.55

